Molecular target: Vasopressin V1a receptor (Rattus norvegicus, UniProt P30560)
Sequence (P30560 whole entry): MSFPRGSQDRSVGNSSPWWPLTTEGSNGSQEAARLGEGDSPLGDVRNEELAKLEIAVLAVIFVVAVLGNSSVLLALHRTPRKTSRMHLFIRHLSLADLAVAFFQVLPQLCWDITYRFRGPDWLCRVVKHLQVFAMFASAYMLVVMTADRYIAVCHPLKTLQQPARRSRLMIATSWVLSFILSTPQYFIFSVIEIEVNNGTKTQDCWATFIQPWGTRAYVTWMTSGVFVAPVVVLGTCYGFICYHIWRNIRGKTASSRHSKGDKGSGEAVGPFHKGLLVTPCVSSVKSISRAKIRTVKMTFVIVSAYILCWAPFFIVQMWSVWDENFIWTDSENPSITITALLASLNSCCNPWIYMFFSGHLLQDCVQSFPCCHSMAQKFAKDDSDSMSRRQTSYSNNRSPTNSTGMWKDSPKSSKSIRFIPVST
Test: Compound was tested for its ability to displace [3H]AVP from its specific binding sites in Rat liver (AVP-V1a receptor).
Examples of compounds with documented IC50 follow.

{"molecular string": "CC(=O)O/N=C1\\CCCN(C(=O)c2ccc(NC(=O)c3ccccc3C)cc2)c2ccccc21", "IC50 [µM]": 2.3}
{"molecular string": "O=C(Nc1ccc(C(=O)N2CCCCc3ccccc32)cc1)Oc1ccccc1", "IC50 [µM]": 7.8}

###

Biological target: Vasopressin V2 receptor (Rattus norvegicus, UniProt Q00788)
Sequence (Q00788 whole entry): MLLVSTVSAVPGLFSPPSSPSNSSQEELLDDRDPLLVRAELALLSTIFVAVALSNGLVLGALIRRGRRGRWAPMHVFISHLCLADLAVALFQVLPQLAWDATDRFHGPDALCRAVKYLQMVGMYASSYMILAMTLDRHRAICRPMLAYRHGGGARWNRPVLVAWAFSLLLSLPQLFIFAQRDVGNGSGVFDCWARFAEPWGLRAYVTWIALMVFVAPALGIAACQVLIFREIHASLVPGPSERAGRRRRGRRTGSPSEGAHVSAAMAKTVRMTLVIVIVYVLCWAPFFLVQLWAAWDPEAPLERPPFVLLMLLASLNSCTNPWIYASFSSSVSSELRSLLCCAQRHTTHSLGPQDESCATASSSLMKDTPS
Experiment: Displacement of [3H]-AVP from its AVP-V2 receptor binding site in rat kidney
Class membership depends on IC50 alone; the intervals are LOW (below 30 nM), MID (30 nM to below 200 nM), HIGH (200 nM or more)

{"compound": "O=C(Nc1ccc(C(=O)N2CCCc3ccccc32)cc1)c1ccc(Cl)cc1", "target system": "Vasopressin V2 receptor (Rattus norvegicus, UniProt Q00788)", "label value": "HIGH"}
{"compound": "CC(=O)Nc1ccccc1C(=O)Nc1ccc(C(=O)N2CCCC(N(C)C)c3ccccc32)cc1 (stereo not given)", "target system": "Vasopressin V2 receptor (Rattus norvegicus, UniProt Q00788)", "label value": "HIGH"}
{"compound": "CN(C)C1CCCN(C(=O)c2ccc(NC(=O)c3ccccc3)cc2)c2ccccc21 (stereo not given)", "target system": "Vasopressin V2 receptor (Rattus norvegicus, UniProt Q00788)", "label value": "LOW"}
{"compound": "CN(C)C1CCCN(C(=O)c2ccc(NC(=O)c3cc(Cl)cc(Cl)c3)cc2)c2ccccc21 (stereo not given)", "target system": "Vasopressin V2 receptor (Rattus norvegicus, UniProt Q00788)", "label value": "LOW"}
{"compound": "Cc1ccccc1C(=O)Nc1ccc(C(=O)N2CCN(C)Cc3ccccc32)cc1", "target system": "Vasopressin V2 receptor (Rattus norvegicus, UniProt Q00788)", "label value": "MID"}
{"compound": "CNC1CCCN(C(=O)c2ccc(NC(=O)c3ccccc3C)cc2)c2ccccc21 (stereo not given)", "target system": "Vasopressin V2 receptor (Rattus norvegicus, UniProt Q00788)", "label value": "LOW"}
{"compound": "O=C(Nc1ccccc1)Nc1ccc(C(=O)N2CCCCc3ccccc32)cc1", "target system": "Vasopressin V2 receptor (Rattus norvegicus, UniProt Q00788)", "label value": "MID"}
{"compound": "O=C(Nc1ccc(C(=O)N2CCCCc3ccccc32)cc1)c1ccccc1Cl", "target system": "Vasopressin V2 receptor (Rattus norvegicus, UniProt Q00788)", "label value": "LOW"}
{"compound": "COc1ccccc1C(=O)Nc1ccc(C(=O)N2CCCc3ccccc32)cc1", "target system": "Vasopressin V2 receptor (Rattus norvegicus, UniProt Q00788)", "label value": "HIGH"}
{"compound": "Cc1ccccc1C(=O)Nc1ccc(C(=O)N2CCCOc3ccccc32)cc1", "target system": "Vasopressin V2 receptor (Rattus norvegicus, UniProt Q00788)", "label value": "MID"}

###

Molecular target: Vasopressin V2 receptor (Rattus norvegicus, UniProt Q00788)
Assay: Compound was tested for its ability to displace [3H]AVP from its specific binding sites in rat Kidney (AVP-V2 receptor).
pIC50: −log10 of the molar value.
measured parameter: pIC50

{"molecular string": "CC(=O)O/N=C1\\CCCN(C(=O)c2ccc(NC(=O)c3ccccc3C)cc2)c2ccccc21", "value reported": 7.24}
{"molecular string": "O=C(Nc1ccc(C(=O)N2CCCCc3ccccc32)cc1)Oc1ccccc1", "value reported": 6.10}
